Entry source: ChEMBL document CHEMBL2150908

assay.procedure: Plasma concentration in BALB/c mouse at 30 mg/kg, ip administered 1 hr prior to prednisone addition measured after 2 mins post prednisone addition by LC/MS/MS analysis
Assay type: ADME, organism-based
Parameters: dose 30 mg/kg, route intraperitoneal
outcome.measure: concentration at 62 min (ng/mL)
Hi! Could you send only the number? It should be in ng/mL, unit omitted.

In: Query (compound): C[C@]1(C(=O)N[C@H]2C3CC4CC2C[C@](O)(C4)C3)CCCN1S(=O)(=O)c1cccc2cccnc12 ; field requested: concentration at 62 min
Out: 94

---

assay.procedure: Oral bioavailability in BALB/c mouse at 5 mg/kg
Assay type: ADME, organism-based
measurement.setup: in vivo
outcome.measure: bioavailability (%)
Hi! Could you send only the number? It should be in %, unit omitted.

{"columns": ["smiles.data", "unit.text", "bioavailability"],
 "data": [
  ["Cc1c(Cl)cccc1S(=O)(=O)N1CCC[C@]1(C)C(=O)N[C@H]1C2CC3CC1C[C@](O)(C3)C2", "%", 9.1]
]}

Next item in the queue.
In: Query (molecule): C[C@]1(C(=O)N[C@H]2C3CC4CC2C[C@](O)(C4)C3)CCCN1S(=O)(=O)c1cccc2cccnc12 ; field requested: bioavailability
Out: 3

---

study.target: 11-beta-hydroxysteroid dehydrogenase 1 (Mus musculus)
assay.procedure: Inhibition of mouse 11betaHSD1 at 100 nM by scintillation proximity assay
Please enter t where inhibition is greater than or equal to 20%, and f where it is lower.

Consider the following illustrative entries.
{"columns": ["compound", "study.target", "qualitative.label"],
 "data": [
  ["CC(O)(c1ccc(S(=O)(=O)N2CCC[C@]2(C)C(=O)N[C@H]2C3CC4CC2C[C@](C#N)(C4)C3)cc1)C(F)(F)F (stereo partly specified)", "11-beta-hydroxysteroid dehydrogenase 1 (Mus musculus)", "f"],
  ["C[C@]1(C(=O)N[C@H]2C3CC4CC2C[C@](O)(C4)C3)CCCN1S(=O)(=O)c1ccc(-c2ccccc2)cc1", "11-beta-hydroxysteroid dehydrogenase 1 (Mus musculus)", "t"],
  ["CC(O)(c1ccc(S(=O)(=O)N2CCC[C@]2(C)C(=O)N[C@H]2C3CC4CC2C[C@](O)(C4)C3)cc1)C(F)(F)F (stereo partly specified)", "11-beta-hydroxysteroid dehydrogenase 1 (Mus musculus)", "t"],
  ["CO[C@H]1CC[C@H](NC(=O)[C@@]2(C)CCCN2S(=O)(=O)c2cccc(Cl)c2C)CC1", "11-beta-hydroxysteroid dehydrogenase 1 (Mus musculus)", "f"],
  ["Cc1c(Cl)cccc1S(=O)(=O)N1CCC[C@]1(C)C(=O)NC12CC3CC(CC(O)(C3)C1)C2", "11-beta-hydroxysteroid dehydrogenase 1 (Mus musculus)", "f"]
]}

In the following, a different compound is considered.
In: Kindly determine if inhibition recorded for C[C@]1(C(=O)N[C@H]2C3CC4CC2C[C@](O)(C4)C3)CCCN1S(=O)(=O)c1cccnc1 is above or exactly 20%.
Out: f

---

Documented IC50 across a set of compounds
study.target: 11-beta-hydroxysteroid dehydrogenase 1 (Mus musculus, UniProt P50172)
Sequence (P50172 whole entry): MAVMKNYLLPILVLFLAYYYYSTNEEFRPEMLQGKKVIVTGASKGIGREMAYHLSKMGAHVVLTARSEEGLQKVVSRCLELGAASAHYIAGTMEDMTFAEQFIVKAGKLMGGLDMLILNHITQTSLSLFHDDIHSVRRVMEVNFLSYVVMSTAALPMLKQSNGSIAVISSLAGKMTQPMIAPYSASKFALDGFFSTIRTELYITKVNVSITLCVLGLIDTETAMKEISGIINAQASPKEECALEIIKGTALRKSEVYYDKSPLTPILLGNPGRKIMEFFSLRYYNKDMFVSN
assay.procedure: Inhibition of mouse 11betaHSD1 in 3T3L1 cells assessed as conversion of [1,2-(N)3H]-cortisone to cortisol after 1 hr by liquid scintillation counter
Assay type: cell-based, 3T3-L1
Hi! Could you send only the number? It should be in nM, unit omitted.

In: Query (compound): Cc1c(Cl)cccc1S(=O)(=O)N1CCC[C@]1(C)C(=O)N[C@H]1C2CC3CC1C[C@](O)(C3)C2 ; field requested: IC50
Out: 121

In: Query (compound): C[C@]1(C(=O)N[C@H]2C3CC4CC2C[C@](O)(C4)C3)CCCN1S(=O)(=O)c1cccc2cccnc12 ; field requested: IC50
Out: 11

---

study.target: 11-beta-hydroxysteroid dehydrogenase 1 (Mus musculus) (UniProt P50172)
assay.procedure: Inhibition of mouse 11betaHSD1 at 100 nM by scintillation proximity assay
outcome.measure: inhibition (%)
Hi! Could you send only the number? It should be in %, unit omitted.

{"columns": ["compound", "quantitative.readout"],
 "data": [
  ["Cc1c(Cl)cccc1S(=O)(=O)N1CCC[C@]1(C)C(=O)NC1CCCCC1", 9.2],
  ["COC(=O)[C@H]1CC2COCC(C1)[C@H]2NC(=O)[C@@]1(C)CCCN1S(=O)(=O)c1cccc(Cl)c1C", 33]
]}

In: Query (compound): Cc1c(Cl)cccc1S(=O)(=O)N1CCC[C@]1(C)C(=O)N[C@H]1CC[C@H](O)CC1 ; field requested: inhibition
Out: 13

In: Query (compound): CC(C)(C)c1ccc(S(=O)(=O)N2CCC[C@]2(C)C(=O)N[C@H]2C3CC4CC2C[C@](O)(C4)C3)cc1 ; field requested: inhibition
Out: 12

In: Query (compound): COc1ccc(S(=O)(=O)N2CCC[C@]2(C)C(=O)N[C@H]2C3CC4CC2C[C@](O)(C4)C3)cc1OC ; field requested: inhibition
Out: 3

In: Query (compound): COC(=O)[C@]12CC3CC(C1)[C@@H](NC(=O)[C@@]1(C)CCCN1S(=O)(=O)c1ccc(C(C)(O)C(F)(F)F)cc1)C(C3)C2 (stereo partly drawn) ; field requested: inhibition
Out: 14

In: Query (compound): CC(=O)c1ccc(S(=O)(=O)N2CCC[C@]2(C)C(=O)N[C@H]2C3CC4CC2C[C@](O)(C4)C3)cc1 ; field requested: inhibition
Out: 16

In: Query (compound): CN(C)c1cccc2c(S(=O)(=O)N3CCC[C@]3(C)C(=O)N[C@H]3C4CC5CC3C[C@](O)(C5)C4)cccc12 ; field requested: inhibition
Out: 31

---

assay.procedure: Intrinsic clearance in human liver microsomes assessed as per mg of protein
Type: ADME, Microsome
measurement.setup: read-out: CLH
In plain terms, low microsomal CLint, meaning strictly below 90 µL/min/mg, gives true, and everything else gives false.

In: Please let me know if C[C@]1(C(=O)N[C@H]2C3CC4CC2C[C@](O)(C4)C3)CCCN1S(=O)(=O)c1cccs1 shows microsomal CLint below 90 µL/min/mg.
Out: true

In: Please let me know if COc1ccc(S(=O)(=O)N2CCC[C@]2(C)C(=O)N[C@H]2C3CC4CC2C[C@](O)(C4)C3)cc1OC shows microsomal CLint below 90 µL/min/mg.
Out: false

---

assay.procedure: Plasma concentration in BALB/c mouse at 3 mg/kg, ip administered 1 hr prior to prednisone addition measured after 2 mins post prednisone addition by LC/MS/MS analysis
Assay type: ADME, organism-based
Set-up: dose 3 mg/kg, route intraperitoneal
outcome.measure: concentration at 2 min (ng/mL)
Hi! Could you send only the number? It should be in ng/mL, unit omitted.

In: Query (molecule): C[C@]1(C(=O)N[C@H]2C3CC4CC2C[C@](O)(C4)C3)CCCN1S(=O)(=O)c1cccc2cccnc12 ; field requested: concentration at 2 min
Out: 28

---

assay.procedure: Half life in BALB/c mouse at 1 mg/kg, iv
Format: ADME, organism-based
Parameters: dose 1 mg/kg, route intravenous
measurement.setup: in vivo
Documented half-life across a set of compounds
Hi! Could you send only the number? It should be in min, unit omitted.

{"columns": ["smiles.data", "half-life [min]"],
 "data": [
  ["Cc1c(Cl)cccc1S(=O)(=O)N1CCC[C@]1(C)C(=O)N[C@H]1C2CC3CC1C[C@](O)(C3)C2", 14]
]}

Next item in the queue.
In: Query (compound): C[C@]1(C(=O)N[C@H]2C3CC4CC2C[C@](O)(C4)C3)CCCN1S(=O)(=O)c1cccc2cccnc12 ; field requested: half-life
Out: 14

---

assay.procedure: Intrinsic clearance in human liver microsomes assessed as per mg of protein
Assay type: ADME, Microsome
measurement.setup: read-out: CLH
Documented microsomal CLint across a set of compounds
Hi! Could you send only the number? It should be in µL/min/mg, unit omitted.

{"columns": ["compound", "microsomal CLint (µL/min/mg)"],
 "data": [
  ["Cc1c(Cl)cccc1S(=O)(=O)N1CCC[C@@H]1C(=O)NC1CCCCC1", 430]
]}

In: Query (compound): C[C@]1(C(=O)N[C@H]2C3CC4CC2C[C@](O)(C4)C3)CCCN1S(=O)(=O)c1ccc(-c2ccccc2)cc1 ; field requested: microsomal CLint
Out: 87

In: Query (compound): C[C@]1(C(=O)N[C@H]2C3CC4CC2C[C@](O)(C4)C3)CCCN1S(=O)(=O)c1ccc(Br)s1 ; field requested: microsomal CLint
Out: 57

In: Query (compound): Cc1c(Cl)cccc1S(=O)(=O)N1CCC[C@]1(C)C(=O)NC1C2CC3CC(C2)CC1C3 (stereo partly specified) ; field requested: microsomal CLint
Out: 499

In: Query (compound): CN(C)c1cccc2c(S(=O)(=O)N3CCC[C@]3(C)C(=O)N[C@H]3C4CC5CC3C[C@](O)(C5)C4)cccc12 ; field requested: microsomal CLint
Out: 148

In: Query (compound): C[C@]1(C(=O)N[C@H]2C3CC4CC2C[C@](O)(C4)C3)CCCN1S(=O)(=O)c1ccc(C#N)cc1Cl ; field requested: microsomal CLint
Out: 134
